Where do the numbers come from? From paper PMC6297231.

system: BT549; experiment: cells; settings: Homo sapiens, BT-549, 6 h, read-out: AZD5991 6h EC50
pEC50: −log10 of the molar value.
recorded.metric: pEC50

INSERT INTO measurements (compound, recorded_value) VALUES
  ('Cc1c2c(nn1C)CSCc1cc(n(C)n1)CSc1cc(c3ccccc3c1)OCCCc1c(C(=O)O)n(C)c3c-2c(Cl)ccc13 (atropisomer, axis not shown; (Ra)) [(Ra)-7]', 5.75);

* * *

test system: SNU1197; experiment: cells; details: 6 h, read-out: AZD5991 6h EC50
pEC50: −log10 of the molar value.
recorded.metric: pEC50

INSERT INTO measurements (compound, tested_system, recorded_metric, recorded_value) VALUES
  ('Cc1c2c(nn1C)CSCc1cc(n(C)n1)CSc1cc(c3ccccc3c1)OCCCc1c(C(=O)O)n(C)c3c-2c(Cl)ccc13 (atropisomer, axis not shown; (Ra)) [(Ra)-7]', 'SNU1197', 'pEC50', '< 4.52');
